Hey, just so you know, these numbers are from patent US20210054078A1.

- target or system: T1, mouse PD-L1 on mPD-L1/CHO-K1 overexpressing cells (mouse, UniProt Q9EP73 19-290)
- T1 construct: whole, on cells; also called mouse PD-L1-expressing cells
- T1 sequence (Q9EP73 19-290): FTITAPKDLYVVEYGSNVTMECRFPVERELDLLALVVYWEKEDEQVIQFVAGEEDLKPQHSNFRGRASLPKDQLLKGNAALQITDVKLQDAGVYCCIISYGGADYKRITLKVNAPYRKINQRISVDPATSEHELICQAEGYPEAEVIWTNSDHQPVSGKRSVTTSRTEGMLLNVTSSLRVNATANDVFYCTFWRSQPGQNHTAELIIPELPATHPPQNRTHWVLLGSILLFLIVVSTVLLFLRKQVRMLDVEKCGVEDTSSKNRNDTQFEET
- measurement description: flow cytometry on mPD-L1/CHO-K1 cells (sheet label mPD-1/CHO-K1)
// values below are reported Geo Mean, all events
Write no unit; give the number alone.

The examples below pair each entry with its known result.
binder | Geo Mean, all events
ME4.B12 anti-PD-L1 antibody (IgG form) (antibody, V domains shown) VH: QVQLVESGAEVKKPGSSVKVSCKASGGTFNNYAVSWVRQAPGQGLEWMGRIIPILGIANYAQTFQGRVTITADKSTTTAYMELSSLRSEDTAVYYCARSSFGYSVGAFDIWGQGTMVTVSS VL: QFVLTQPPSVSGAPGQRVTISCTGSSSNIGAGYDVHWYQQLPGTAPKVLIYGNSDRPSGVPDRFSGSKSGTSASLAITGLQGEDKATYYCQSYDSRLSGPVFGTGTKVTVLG | 7.13
ME4.A12 anti-PD-L1 antibody (IgG form) (antibody, V domains shown) VH: QVQLVESGAEVKKPGSSVKVSCKASGGTFNNYAVSWVRQAPGQGLEWMGRIIPILGIANYAQTFQGRVTITADKSTTTAYMELSSLRSEDTAVYYCARSHWGYAHGAFDIWGQGTMVTVSS VL: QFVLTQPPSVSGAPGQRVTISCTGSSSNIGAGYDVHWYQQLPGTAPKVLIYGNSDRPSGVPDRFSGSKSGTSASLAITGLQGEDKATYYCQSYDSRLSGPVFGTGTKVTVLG | 5.39

Now for the binder whose Geo Mean, all events we want.
IN: Please look at this binder and report its Geo Mean, all events: ME4.A11 anti-PD-L1 antibody (IgG form) (antibody, V domains shown) VH: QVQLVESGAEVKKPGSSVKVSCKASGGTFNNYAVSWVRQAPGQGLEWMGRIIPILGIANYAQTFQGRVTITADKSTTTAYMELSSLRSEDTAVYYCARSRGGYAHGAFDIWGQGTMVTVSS VL: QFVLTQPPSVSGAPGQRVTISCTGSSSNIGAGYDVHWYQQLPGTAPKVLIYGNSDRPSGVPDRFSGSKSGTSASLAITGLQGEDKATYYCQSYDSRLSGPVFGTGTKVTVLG
OUT: 5.55
